A short record of GI50 observed with PC-3 follows.

>  <input smiles>
COc1ccc(-c2nc3cc(C(=O)NN=Cc4ccccc4O)ccc3[nH]2)cc1

>  <study target>
PC-3

>  <unit annotation>
µM

>  <value relation sign>
=

>  <GI50>
1.77

$$$$
>  <input smiles>
COc1cccc(C=NNC(=O)c2ccc3[nH]c(-c4ccccc4)nc3c2)c1O

>  <study target>
PC-3

>  <unit annotation>
µM

>  <value relation sign>
=

>  <GI50>
2.71

$$$$
>  <input smiles>
COc1cccc(C=NNC(=O)c2ccc3[nH]c(-c4ccc(Cl)cc4)nc3c2)c1O

>  <study target>
PC-3

>  <unit annotation>
µM

>  <value relation sign>
=

>  <GI50>
1.62

$$$$
>  <input smiles>
O=C(NN=Cc1ccccc1O)c1ccc2[nH]c(-c3ccc(Cl)cc3)nc2c1

>  <study target>
PC-3

>  <unit annotation>
µM

>  <value relation sign>
>

>  <GI50>
38.8

$$$$
>  <input smiles>
COc1cc(C=NNC(=O)c2ccc3[nH]c(-c4ccc(Cl)cc4)nc3c2)cc(OC)c1OC

>  <study target>
PC-3

>  <unit annotation>
µM

>  <value relation sign>
=

>  <GI50>
5.73

$$$$
